- target entity: (Na^+ +K^+)ATPase (Canis lupus familiaris, UniProt P50997)
- Construct: (Na^+ +K^+)ATPase was purified from the outer medulla of dog kidney; from tissue; host or cells: dog kidney outer medulla, purified membrane enzyme
- protocol text: Competition for ^3 H-ouabain binding to purified (Na^+ +K^+)ATPase
- Parameters: species or system dog
- condition parameters: read-out: calculated apparent Kd value; competition for ^3 H-ouabain binding, 50 nM ouabain, 2 hr at 37° C.
assay endpoint: pKd
Quick note: pKd means taking -log10 of the concentration in moles per liter.

Entry under test: CC1OC(OC2CC(O)C3(CO)C4C(O)CC5(C)C(C6=CC(=O)OC6)CCC5(O)C4CCC3(O)C2)C(O)C(O)C1O (stereo not shown) [human ouabain] . Its pKd was 8.11

meta.source: patent US5164296A
